Tgt: Thymic stromal lymphopoietin (Homo sapiens)
Assay text: Inhibition of human N-terminal flag-tagged TSLP/human C-terminal octa histidine-tagged TSLPR interaction at 0.1 mM after 16 hrs by ELISA based spectrophotometric analysis
Where a SMILES comes first, the peptide text is derived from it.
Mark no for inhibition values under 20%, and yes for everything at or above.

Study these solved cases before continuing.
Compound: CC(=O)N[C@@H](C)C(=O)N[C@@H](C)C(=O)N[C@@H](Cc1cnc[nH]1)C(=O)N[C@@H](Cc1ccc(O)cc1)C(=O)NCC(=O)N[C@@H](CC(C)C)C(=O)N[C@@H](CCC(=O)O)C(=O)N[C@@H](C)C(=O)O (Ac-AAHYGLEA-OH)
Class name: no
//
Compound: CC(=O)N[C@@H](CCCNC(=N)N)C(=O)N[C@@H](C)C(=O)N[C@@H](C)C(=O)N[C@@H](Cc1cnc[nH]1)C(=O)N[C@@H](Cc1ccc(O)cc1)C(=O)NCC(=O)N[C@@H](CC(C)C)C(=O)N[C@@H](CCC(=O)O)C(=O)N[C@@H](C)C(=O)O (Ac-RAAHYGLEA-OH)
Class name: no
//
Compound: C[C@H](NC(=O)[C@H](CO)NC(=O)[C@H](C)NC(=O)[C@H](CCCNC(=N)N)NC(=O)[C@H](CCC(N)=O)NC(=O)[C@@H](N)CCCNC(=N)N)C(=O)N[C@@H](Cc1c[nH]c2ccccc12)C(=O)O (H-RQRASAW-OH)
Class name: yes
//
Compound: C[C@H](NC(=O)[C@H](CO)NC(=O)[C@H](C)NC(=O)[C@H](CCCNC(=N)N)NC(=O)[C@H](CCC(N)=O)NC(=O)[C@@H](N)CCCNC(=N)N)C(=O)O (H-RQRASA-OH)
Class name: no

Continue with the next compound.
-- ask Given the entry C[C@H](N)C(=O)N[C@@H](CCCNC(=N)N)C(=O)N[C@@H](CCC(N)=O)C(=O)N[C@@H](CCCNC(=N)N)C(=O)N[C@@H](C)C(=O)N[C@@H](CO)C(=O)N[C@@H](C)C(=O)O (H-ARQRASA-OH) , answer whether its inhibition meets or surpasses 20%.
-- reply yes

---

Tgt: Thymic stromal lymphopoietin (Homo sapiens)
Assay text: Inhibition of human N-terminal flag-tagged TSLP/human C-terminal octa histidine-tagged TSLPR interaction at 0.3 mM after 16 hrs by ELISA based spectrophotometric analysis
Where a SMILES comes first, the peptide text is derived from it.
Decide by inhibition: equal to or exceeding 20% means Met, less means Not met.

Compound: CC(C)C[C@H](NC(=O)CNC(=O)[C@H](Cc1ccc(O)cc1)NC(=O)[C@H](Cc1cnc[nH]1)NC(=O)[C@H](C)NC(=O)[C@H](C)NC(=O)[C@@H](N)CCCNC(=N)N)C(=O)N[C@@H](CCC(=O)O)C(=O)N[C@@H](C)C(=O)O (H-RAAHYGLEA-OH)
Tgt: Thymic stromal lymphopoietin (Homo sapiens)
Class name: Not met
//
Compound: CC(=O)N[C@@H](CCCNC(=N)N)C(=O)N[C@@H](C)C(=O)N[C@@H](C)C(=O)N[C@@H](Cc1cnc[nH]1)C(=O)N[C@@H](Cc1ccc(O)cc1)C(=O)NCC(=O)N[C@@H](CC(C)C)C(=O)N[C@@H](CCC(=O)O)C(=O)O (Ac-RAAHYGLE-OH)
Tgt: Thymic stromal lymphopoietin (Homo sapiens)
Class name: Not met

-- ask Answer whether inhibition of CC(=O)N[C@@H](C)C(=O)N[C@@H](C)C(=O)N[C@@H](Cc1cnc[nH]1)C(=O)N[C@@H](Cc1ccc(O)cc1)C(=O)NCC(=O)N[C@@H](CC(C)C)C(=O)N[C@@H](CCC(=O)O)C(=O)N[C@@H](C)C(=O)O (Ac-AAHYGLEA-OH) is greater than or equal to 20%.
-- reply Not met

-- ask Quick check: does CC(=O)N[C@@H](C)C(=O)N[C@@H](CCCNC(=N)N)C(=O)N[C@@H](CCC(N)=O)C(=O)N[C@@H](CCCNC(=N)N)C(=O)N[C@@H](C)C(=O)N[C@@H](CO)C(=O)N[C@@H](C)C(=O)N[C@@H](Cc1c[nH]c2ccccc12)C(=O)O (Ac-ARQRASAW-OH) have inhibition greater than or equal to 20%?
-- reply Met

-- ask Threshold query (inhibition >= 20%) on C[C@H](N)C(=O)N[C@@H](CCCNC(=N)N)C(=O)N[C@@H](CCC(N)=O)C(=O)N[C@@H](CCCNC(=N)N)C(=O)N[C@@H](C)C(=O)N[C@@H](CO)C(=O)N[C@@H](C)C(=O)O (H-ARQRASA-OH)
-- reply Met

-- ask Does the reported inhibition for CC(=O)N[C@@H](CCCNC(=N)N)C(=O)N[C@@H](CCC(N)=O)C(=O)N[C@@H](CCCNC(=N)N)C(=O)N[C@@H](C)C(=O)N[C@@H](CO)C(=O)N[C@@H](C)C(=O)N[C@@H](Cc1c[nH]c2ccccc12)C(=O)O (Ac-RQRASAW-OH) fall at or above the 20% mark?
-- reply Met

-- ask Textbook exercise: given the entry CC(=O)N[C@@H](C)C(=O)N[C@@H](C)C(=O)N[C@@H](Cc1cnc[nH]1)C(=O)N[C@@H](Cc1ccc(O)cc1)C(=O)NCC(=O)N[C@@H](CC(C)C)C(=O)N[C@@H](CCC(=O)O)C(=O)O (Ac-AAHYGLE-OH) , state whether its inhibition is greater than or equal to 20%.
-- reply Not met

-- ask Item CC(=O)N[C@@H](CCCNC(=N)N)C(=O)N[C@@H](C)C(=O)N[C@@H](C)C(=O)N[C@@H](Cc1cnc[nH]1)C(=O)N[C@@H](Cc1ccc(O)cc1)C(=O)NCC(=O)N[C@@H](CC(C)C)C(=O)N[C@@H](CCC(=O)O)C(=O)N[C@@H](C)C(=O)O (Ac-RAAHYGLEA-OH) with inhibition of 20% or above?
-- reply Not met

---

inhibition values for the compounds below.
Tgt: Thymic stromal lymphopoietin (Homo sapiens)
Assay text: Inhibition of human N-terminal flag-tagged TSLP/human C-terminal octa histidine-tagged TSLPR interaction at 1 mM after 16 hrs by ELISA based spectrophotometric analysis relative to control
Where a SMILES comes first, the peptide text is derived from it.
All answers are understood in %, so give the number only.

Below, 3 compounds whose answers are already recorded.
Compound: C[C@H](NC(=O)[C@H](CO)NC(=O)[C@H](C)NC(=O)[C@H](CCCNC(=N)N)NC(=O)[C@H](CCC(N)=O)NC(=O)[C@@H](N)CCCNC(=N)N)C(=O)N[C@@H](Cc1c[nH]c2ccccc12)C(=O)O (H-RQRASAW-OH)
inhibition (%): 46

Compound: CC(=O)N[C@@H](CCCNC(=N)N)C(=O)N[C@@H](C)C(=O)N[C@@H](C)C(=O)N[C@@H](Cc1cnc[nH]1)C(=O)N[C@@H](Cc1ccc(O)cc1)C(=O)NCC(=O)N[C@@H](CC(C)C)C(=O)N[C@@H](CCC(=O)O)C(=O)N[C@@H](C)C(=O)O (Ac-RAAHYGLEA-OH)
inhibition (%): 34

Compound: CC(C)C[C@H](NC(=O)CNC(=O)[C@H](Cc1ccc(O)cc1)NC(=O)[C@H](Cc1cnc[nH]1)NC(=O)[C@H](C)NC(=O)[C@H](C)N)C(=O)N[C@@H](CCC(=O)O)C(=O)O (H-AAHYGLE-OH)
inhibition (%): 16

API: the following record is the query input.
Per the record, C[C@H](N)C(=O)N[C@@H](CCCNC(=N)N)C(=O)N[C@@H](CCC(N)=O)C(=O)N[C@@H](CCCNC(=N)N)C(=O)N[C@@H](C)C(=O)N[C@@H](CO)C(=O)N[C@@H](C)C(=O)O (H-ARQRASA-OH) has inhibition of 30

Origin of the recorded values: ChEMBL document CHEMBL4043230
